- TEST SYSTEM: T1, recombinant cynomolgus CLL-1 extracellular domain (ECD, amino acids 65-265) fused to an N-terminal Flag (cynomolgus monkey)
- T1 construct: Construct stated for the immunogen; also called CynoCLL-1 Flag; cynoCLL-1
- T1 chain: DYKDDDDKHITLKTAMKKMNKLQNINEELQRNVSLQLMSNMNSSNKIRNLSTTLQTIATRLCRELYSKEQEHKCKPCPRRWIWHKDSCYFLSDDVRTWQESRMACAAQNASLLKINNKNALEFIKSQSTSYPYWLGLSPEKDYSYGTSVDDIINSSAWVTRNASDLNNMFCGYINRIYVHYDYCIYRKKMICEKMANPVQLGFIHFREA
- ASSAY COMMENT: SPR (Biacore T200), IgG captured by anti-human Fc, CLL-1 as analyte
METRIC: Kd (nM)
API: value field is a number in nM; no unit string.

Example binders with recorded Kd:
6E7.L4H1eE54 (antibody, V domains shown, IgG) VH: EVQLVQSGAEVKKPGASVKVSCKASGYSFTDYYMHWVRQAPGQGLEWIGRINPYEGAAFYSQNFKDRVTLTVDTSTSTAYLELSSLRSEDTAVYYCAIERGADLEGYAMDYWGQGTLVTVSS VL: DIQMTQSPSSLSASVGDRVTITCRASQSVSTSSYNYMHWYQQKPGKPPKLLIKYASNLESGVPSRFSGSGSGTDFTLTISSLQPEDFATYYCQHSWEIPLTFGQGTKVEIK	4.26
21C9.L2H3D54 (antibody, V domains shown) VH: EVQLVQSGAEVKKPGASVKVSCKASGYTFTDYYLDWVRQAPGQGLEWIGRVNPYDGGTIYNQKFKGRVTLTRDTSTSTAYLELSSLRSEDTAVYYCARDHYRYDPLLDYWGQGTLVTVSS VL: DIQMTQSPSSLSASVGDRVTITCKASQDVSTAVAWFQQKPGKAPKLLIYSPSYRYTGVPSRFSGSGSGTDFTLTISSLQPEDFATYYCQQLYSTPYTFGQGTKVEIK	217
21C9.L2H3S54 (antibody, V domains shown) VH: EVQLVQSGAEVKKPGASVKVSCKASGYTFTDYYLDWVRQAPGQGLEWIGRVNPYSGGTIYNQKFKGRVTLTRDTSTSTAYLELSSLRSEDTAVYYCARDHYRYDPLLDYWGQGTLVTVSS VL: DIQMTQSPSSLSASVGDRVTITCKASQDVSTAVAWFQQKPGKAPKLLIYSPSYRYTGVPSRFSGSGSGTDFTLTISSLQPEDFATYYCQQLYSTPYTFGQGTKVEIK	5670
6E7.L4H1eD54 (antibody, V domains shown, IgG; also called h6E7D; H6E7.L4H1D54) VH: EVQLVQSGAEVKKPGASVKVSCKASGYSFTDYYMHWVRQAPGQGLEWIGRINPYDGAAFYSQNFKDRVTLTVDTSTSTAYLELSSLRSEDTAVYYCAIERGADLEGYAMDYWGQGTLVTVSS VL: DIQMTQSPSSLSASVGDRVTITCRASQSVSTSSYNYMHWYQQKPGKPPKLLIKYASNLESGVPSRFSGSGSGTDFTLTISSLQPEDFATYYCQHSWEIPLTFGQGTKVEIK	48.7
6E7.L4H1eA54 (antibody, V domains shown, humanized IgG; also called 6E7.L4H1eN54A; h6E7A) VH: EVQLVQSGAEVKKPGASVKVSCKASGYSFTDYYMHWVRQAPGQGLEWIGRINPYAGAAFYSQNFKDRVTLTVDTSTSTAYLELSSLRSEDTAVYYCAIERGADLEGYAMDYWGQGTLVTVSS VL: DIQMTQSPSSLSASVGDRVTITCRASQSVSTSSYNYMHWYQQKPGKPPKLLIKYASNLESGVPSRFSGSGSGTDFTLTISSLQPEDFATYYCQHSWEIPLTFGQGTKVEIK	3.14
21C9.L2H3E54 (antibody, V domains shown) VH: EVQLVQSGAEVKKPGASVKVSCKASGYTFTDYYLDWVRQAPGQGLEWIGRVNPYEGGTIYNQKFKGRVTLTRDTSTSTAYLELSSLRSEDTAVYYCARDHYRYDPLLDYWGQGTLVTVSS VL: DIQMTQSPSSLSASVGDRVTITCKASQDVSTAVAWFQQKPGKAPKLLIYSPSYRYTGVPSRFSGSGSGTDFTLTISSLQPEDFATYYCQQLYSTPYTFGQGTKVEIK	49600

API: the following record is the query input.
input: Output measured Kd for this item: 6E7.L4H1eS54 (antibody, V domains shown, IgG) VH: EVQLVQSGAEVKKPGASVKVSCKASGYSFTDYYMHWVRQAPGQGLEWIGRINPYSGAAFYSQNFKDRVTLTVDTSTSTAYLELSSLRSEDTAVYYCAIERGADLEGYAMDYWGQGTLVTVSS VL: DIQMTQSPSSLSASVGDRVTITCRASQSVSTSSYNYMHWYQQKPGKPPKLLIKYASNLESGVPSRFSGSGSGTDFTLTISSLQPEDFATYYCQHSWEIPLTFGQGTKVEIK
output: 6.37
